# PROTOCOL_DESCRIPTION: Pharmacokinetic study in rats
# Assay type: in vivo, SD rats
# CONDITION_SET: male, SD, rat, in vivo, po, 10 mg/kg

SAMPLE_SMILES: Cn1c(C(=O)N2CC(F)(F)C2)cc2c1CN(c1ncc(F)c(Nc3ccc(-c4cn[nH]c4)cc3)n1)CC2
AUC(0-t) [ng·h/mL]: 2040

* * *

# PROTOCOL_DESCRIPTION: Solubility in biologically relevant media at 37° C. (free base crystal form I, crystal form III of maleate)
# Format: physicochemical
# CONDITION_SET: simulated gastric fluid, thermodynamic from solid; SGF, 37° C., 0.5 h
MEASURED_METRIC: solubility at 0.5 h

COMPOUND: Cn1c(C(=O)N2CC(F)(F)C2)cc2c1CN(c1ncc(F)c(Nc3ccc(-c4cn[nH]c4)cc3)n1)CC2 [Free base crystal form I]
RESULT: 0.0115 mg/mL

Sourced from patent US20250074908A1
